Target: HA of B/Malaysia/2506/2004 (victoria) (influenza B virus)
Assay: cell-based or functional assay
measured.endpoint: Neutralization (IC50) (nM)
Note: unit nM is implicit; provide only the numeric part.

Which Neutralization (IC50) value belongs to FBC39 IgG (antibody, V domains shown) VH: EVQLVVSGGGLVKPGGSLRLSCAASGLSFLNAWMSWVRQAPGKGLEWVGRIKSNTDGGTTDYAAPVKGRFSISRDDSKNMLFLHMSSLRTEDTAVYYCATDGPYSDDFRSGYAARYRYFGMDVWGQGTTVTVSS VL: DIQMTQSPSSVSASVGDRVTITCRASQDISTWLAWYQQKPGKAPKLLIYAASSLQSGVPSRFSGSGSGTDFTLTISSLQPEDFATYFCQQANSFPPTFGQGTKLEIK ?
1
